tested_system: HDAC2 Human recombinant C-terminal FLAG-tag (Homo sapiens, UniProt Q92769)
Construct: FLAG (C); purchased BPS Bioscience 50052
Sequence (Q92769 whole entry): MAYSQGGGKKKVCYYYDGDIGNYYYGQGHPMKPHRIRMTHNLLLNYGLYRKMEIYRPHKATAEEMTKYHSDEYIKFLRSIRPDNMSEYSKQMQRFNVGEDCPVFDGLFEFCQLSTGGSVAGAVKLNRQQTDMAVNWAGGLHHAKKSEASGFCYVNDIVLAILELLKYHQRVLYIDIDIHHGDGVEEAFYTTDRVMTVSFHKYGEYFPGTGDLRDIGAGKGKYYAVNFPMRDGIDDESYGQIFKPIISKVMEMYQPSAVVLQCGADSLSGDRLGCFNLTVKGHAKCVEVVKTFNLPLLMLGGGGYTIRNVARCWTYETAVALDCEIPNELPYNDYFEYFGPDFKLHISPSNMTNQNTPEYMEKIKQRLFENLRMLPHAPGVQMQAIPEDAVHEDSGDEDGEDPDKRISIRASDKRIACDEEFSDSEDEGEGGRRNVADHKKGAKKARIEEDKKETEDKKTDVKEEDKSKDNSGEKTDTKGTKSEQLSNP
assay_protocol: Measurement of HDAC2 enzyme inhibitory activity (HTRF)
Format: biochemical
experimental_context: recombinant HDAC2, H3K9ac peptide; read-out: IC50 (HDAC2)
pIC50: −log10 of the molar value.
assay_readout: pIC50

{"structure_string": "CC(=O)Nc1cnc(C(=O)Nc2cc(-c3cnn(C)c3)ccc2N)cn1", "tested_system": "HDAC2 Human recombinant C-terminal FLAG-tag (Homo sapiens, UniProt Q92769)", "assay_readout": "pIC50", "observed_result": 6.92}
{"structure_string": "CCNc1cnc(C(=O)Nc2cc(-c3cnn(C)c3)ccc2N)cn1", "tested_system": "HDAC2 Human recombinant C-terminal FLAG-tag (Homo sapiens, UniProt Q92769)", "assay_readout": "pIC50", "observed_result": 7.15}
{"structure_string": "CS(=O)(=O)Nc1cnc(C(=O)Nc2cc(-c3ccc(F)nc3)ccc2N)cn1", "tested_system": "HDAC2 Human recombinant C-terminal FLAG-tag (Homo sapiens, UniProt Q92769)", "assay_readout": "pIC50", "observed_result": 6.82}
{"structure_string": "CC(=O)Nc1ccc(C(=O)Nc2nc(-n3cccc3)ccc2N)nc1", "tested_system": "HDAC2 Human recombinant C-terminal FLAG-tag (Homo sapiens, UniProt Q92769)", "assay_readout": "pIC50", "observed_result": 6.89}
{"structure_string": "CCC(=O)Nc1ccc(C(=O)Nc2cc(-c3cnn(C)c3)ccc2N)nc1", "tested_system": "HDAC2 Human recombinant C-terminal FLAG-tag (Homo sapiens, UniProt Q92769)", "assay_readout": "pIC50", "observed_result": 7.11}
{"structure_string": "CC(=O)Nc1cnc(C(=O)Nc2cc(-c3ccc(F)nc3)ccc2N)cn1", "tested_system": "HDAC2 Human recombinant C-terminal FLAG-tag (Homo sapiens, UniProt Q92769)", "assay_readout": "pIC50", "observed_result": 7.04}

Sourced from patent US20230119479A1
